Attribution: ChEMBL document CHEMBL5390255

- procedure_summary: Cytotoxicity against mouse RAW264.7 cells assessed as reduction of cell viability incubated for 72 hrs by Cell Titer-Glo assay
- Assay type: toxicity, cell-based
Give measured CC50 at 72 h for each item. Keep answers brief.

Known CC50 at 72 h results, listed for orientation:
{"cpd_smiles": "COc1ccc(-c2c(NCc3ccccn3)c(=O)c2=O)cc1", "CC50 at 72 h": "> 64 µM"}
{"cpd_smiles": "O=c1c(NCc2ccccn2)c(N2CCN(c3ccccc3)CC2)c1=O", "CC50 at 72 h": "26.2 µM"}

For every item in the list below, what is its measured CC50 at 72 h?
1. O=c1c(NCc2ccccn2)c(-c2ccc(C3CCCCC3)cc2)c1=O
2. O=c1c(NCc2ccccn2)c(Nc2ccccc2)c1=O

["> 64 µM", "> 64 µM"]

Go through the items and report each one's CC50 at 72 h.
1. O=c1c(NCc2ccccn2)c(-c2ccc(F)cc2)c1=O
2. O=c1c(NCc2ccccn2)c(Nc2nc3ccc([N+](=O)[O-])cc3o2)c1=O

["> 64 µM", "> 64 µM"]
